System: DU-145 prostate
ASSAY_EXPLANATION: NCI tumour cell line growth inhibition, 48 h
Recorded TGI, one value per entry.
ASSAY_ENDPOINT: TGI

• NS(=O)(=O)c1ccc(NCc2cccc3c(=O)c4ccc(Cl)cc4oc23)cc1 = > 100 µM
• C/C(=C/C(=O)N(C)c1ccccc1Cl)O[Si](C(C)C)(C(C)C)C(C)C = > 100 µM
• COc1ccccc1Nc1nc(N)nc(N)c1N = > 100 µM
• COc1cc(F)c(F)c(F)c1C(=O)c1cnc(NC2CCN(S(C)(=O)=O)CC2)nc1N = > 22 µM

====

Tested on: HCC-2998 colon
ASSAY_EXPLANATION: NCI tumour cell line growth inhibition, 48 h
ASSAY_ENDPOINT: GI50

• COc1ccc(-c2cc(-c3ccc(Cl)cc3)c(C#N)c(=O)n2CCCCCC(=O)Nc2ccccc2N)cc1 = 4.02 µM
• CC(=O)[O-].O=C([CH-]C(=O)c1ccccc1)c1ccccc1.O=C([CH-]C(=O)c1ccccc1)c1ccccc1.[Dy+3] = 11.6 µM
• COc1ncc(-c2ccc3nc(N)n(-c4ccccc4C(F)(F)F)c(=O)c3c2)cc1S(=O)(=O)Nc1ccc(F)cc1F = 1.74 µM
• COc1cc(-c2nn(-c3cccc(NC(=O)NCCNC(=O)c4ccccc4)c3)cc2-c2ccncc2)ccc1Cl = 5.42 µM
• CCC[CH2][Sn]1([CH2]CCC)[O]C(=O)c2cccnc2[S]1 = 2.39 µM
• CNC(=S)N/N=C/CSC/C=N/NC(=S)NC = > 100 µM
• COc1cccc(-c2cc(-c3ccc(Nc4nc(Nc5ccc(Cl)cc5)nc(Nc5ccc(Cl)cc5)n4)cc3)nc(N)c2C#N)c1 = 2.11 µM
